biological target: T1, CD28 (endogenously expressed on Jurkat/IL2 reporter cells) (human, UniProt P10747 19-220); test: flow cytometry MFI at 33.3 nM relative to WT CD80 ECD-Fc (R&D), Jurkat cells
T1 construct: Endogenous CD28 of Jurkat cells; also called human CD28
readout_label: Fold change to WT (fold)

{"columns": ["binder", "val"],
 "data": [
  ["variant CD80 IgV-Fc H18Y/E35D/M47L (Fc fusion, not shown: a dimerising Fc or GST) VIHVTKEVKEVATLSCGYNVSVEELAQTRIYWQKDKKMVLTMMSGDLNIWPEYKNRTIFDITNNLSIVILALRPSDEGTYECVVLKYEKDAFKREHLAEVTLSVKAD", 0.66],
  ["variant CD80 IgV-Fc H18Y/V20A/Q33L/E35D/M47V/Y53F (Fc fusion, not shown: a dimerising Fc or GST) VIHVTKEVKEVATLSCGYNASVEELAQTRIYWLKDKKMVLTMMSGDVNIWPEFKNRTIFDITNNLSIVILALRPSDEGTYECVVLKYEKDAFKREHLAEVTLSVKAD", 0.03],
  ["variant CD80 IgV-Fc H18Y/Q33L/E35D/M47I (Fc fusion, not shown: a dimerising Fc or GST) VIHVTKEVKEVATLSCGYNVSVEELAQTRIYWLKDKKMVLTMMSGDINIWPEYKNRTIFDITNNLSIVILALRPSDEGTYECVVLKYEKDAFKREHLAEVTLSVKAD", 0.04]
]}
